Attribution: patent US6737383B1

# Tested on: wild oat
# ASSAY_SUMMARY: Test B pre/postemergence wild oat
# Format: in vivo, Avena fatua
# TEST_CONTEXT: Preemergence, Rate 62 g/ha; scale of 0 to 10 where 0 is no effect and 10 is complete control
// Plant response rating, Wild oats lookup, one value per entry

| COMPOUND | Plant response rating, Wild oats |
| --- | --- |
| CCC(=O)Cn1c(=O)on(C(=O)N(c2ccc(F)cc2F)C(C)C)c1=O [Compound 524] | 7 |
| CC(C)N(C(=O)n1oc(=O)n(CCC2OCCCO2)c1=O)c1ccc(Cl)cc1 [Compound 532] | 0 |
| CC(C)N(C(=O)n1oc(=O)n(CCCNC(=O)CCl)c1=O)c1ccccc1 [Compound 493] | 0 |
| CCN(CC)C(=O)Cn1c(=O)on(C(=O)N(c2ccc(F)cc2F)C(C)C)c1=O [Compound 512] | 2 |

* * *

# System: rape
# ASSAY_SUMMARY: Test B pre/postemergence rape
# Type: in vivo, Brassica napus
# TEST_CONTEXT: Rate 62 g/ha, Postemergence; scale 0 to 10 (0 no effect, 10 complete control)

| COMPOUND | Rape plant response rating |
| --- | --- |
| CC(C)N(C(=O)n1oc(=O)n(C2CC3CCC2C3)c1=O)c1ccccc1 (centres unmarked) | 0 |
| CC(C)N(C(=O)n1oc(=O)n(CCCNC(=O)CCl)c1=O)c1ccccc1 | 0 |
| CC(C)N(C(=O)n1oc(=O)n(C(C)C#N)c1=O)c1ccccc1 (centres unmarked) | 0 |
| CCN(C(=O)n1oc(=O)n(C2CC2)c1=O)C1CCCCC1 | 0 |
| CC[Si](C)(C)Cn1c(=O)on(C(=O)N(c2ccc(Cl)cc2)C(C)C)c1=O | 0 |
| CC(C)N(C(=O)n1oc(=O)n(Cc2nnsc2Cl)c1=O)c1ccc(F)cc1F | 0 |
| CC(C)N(C(=O)n1oc(=O)n(CO)c1=O)c1ccc(Cl)cc1 | 0 |
| CC(C)N(C(=O)n1oc(=O)n(C2CC3CCC2C3)c1=O)c1ccc(F)cc1 (centres unmarked) | 0 |

* * *

Listed molecules paired with reported Cocklebur plant response rating
# Test system: cocklebur
# ASSAY_SUMMARY: Test B pre/postemergence cocklebur
# Type: in vivo, Xanthium strumarium
# TEST_CONTEXT: Rate 125 g/ha, Postemergence; scale 0 to 10
PARAMETER_MEASURED: Cocklebur plant response rating

| MOLECULE | TARGET_ENTITY | RESULT |
| --- | --- | --- |
| CCCCCCCCCCCCCCCCCCCn1c(=O)on(C(=O)N(c2ccc(F)cc2)C(C)C)c1=O [Compound 253] | cocklebur | 0 |
| Cc1nc(C)c(Cn2c(=O)on(C(=O)N(c3ccc(F)cc3F)C(C)C)c2=O)s1 [Compound 233] | cocklebur | 2 |
| CCOC(=O)C(C)N(C(=O)n1oc(=O)n(-c2ccccc2C)c1=O)c1ccc(F)cc1 (stereo not drawn) [Compound 247] | cocklebur | 0 |
| [2H]C([2H])([2H])n1c(=O)on(C(=O)N(c2ccc(F)cc2)C(C)C)c1=O [Compound 245] | cocklebur | 0 |
| Cc1nc(C)c(-n2c(=O)on(C(=O)N(c3ccc(F)cc3)C(C)C)c2=O)s1 [Compound 198] | cocklebur | 0 |
| CC(C)N(C(=O)n1oc(=O)n(CCC2OCCO2)c1=O)c1ccc(F)cc1 [Compound 219] | cocklebur | 1 |

* * *

Consider the following molecules and their measured Plant response rating, Morningglory readings.
# Test system: morningglory
# ASSAY_SUMMARY: Test B pre/postemergence morningglory
# Type: in vivo, Ipomoea hederacea
# TEST_CONTEXT: Postemergence, Rate 500 g/ha; scale of 0 to 10 where 0 is no effect and 10 is complete control

| MOLECULE | Plant response rating, Morningglory |
| --- | --- |
| C#CC(C)n1c(=O)on(C(=O)N(c2ccccc2)C(C)C)c1=O (stereo not drawn) | 10 |
| CCCCCn1c(=O)on(C(=O)N(c2ccccc2)C(C)C)c1=O | 8 |
| CC(C)N(C(=O)n1oc(=O)n(C(C)CBr)c1=O)c1ccc(F)cc1F (stereo not drawn) | 7 |
| CC(C)N(C(=O)n1oc(=O)n(CCC(=O)N(C)C)c1=O)c1ccc(F)cc1 | 7 |
| C=C(Cl)Cn1c(=O)on(C(=O)N(c2ccccc2)C(C)C)c1=O | 10 |
| COC(C)n1c(=O)on(C(=O)N(c2ccc(F)cc2F)C(C)C)c1=O (stereo not drawn) | 2 |

* * *

# System: crabgrass
# ASSAY_SUMMARY: Test B pre/postemergence crabgrass
# Assay type: in vivo, Digitaria sanguinalis
# TEST_CONTEXT: Rate 500 g/ha, Postemergence; scale 0 to 10, 0 no effect, 10 complete control
PARAMETER_MEASURED: Plant response rating, Crabgrass

| COMPOUND | TARGET_ENTITY | PARAMETER_MEASURED | RESULT |
| --- | --- | --- | --- |
| CC(C)N(C(=O)n1oc(=O)n(C2CC3CCC2C3)c1=O)c1ccc(F)cc1 (stereo not shown) | crabgrass | Plant response rating, Crabgrass | 1 |
| CC1CC1n1c(=O)on(C(=O)N(c2ccccc2)C(C)C)c1=O (stereo not shown) | crabgrass | Plant response rating, Crabgrass | 9 |
| CC(C)N(C(=O)n1oc(=O)n(CC2CCOC2)c1=O)c1ccc(F)cc1 (stereo not shown) | crabgrass | Plant response rating, Crabgrass | 9 |
| CC(C)N(C(=O)n1oc(=O)n(N2CCOCC2)c1=O)c1ccc(F)cc1 | crabgrass | Plant response rating, Crabgrass | 9 |

* * *

Measured Crabgrass plant response rating accompanies every entry in the list below.
# Test system: crabgrass
# ASSAY_SUMMARY: Test B pre/postemergence crabgrass
# Type: in vivo, Digitaria sanguinalis
# TEST_CONTEXT: Preemergence, Rate 62 g/ha; scale 0 to 10 (0 no effect, 10 complete control)
# Description: […] At the same time, these crop and weed species were also treated with postemergence applications of test chemicals formulated in the same manner. […] Treated plants and controls were maintained in a greenhouse for twelve to sixteen days, after which all species were compared to controls and visually evaluated. […]

| SMILES_REPRESENTATION | Crabgrass plant response rating |
| --- | --- |
| CCCCCn1c(=O)on(C(=O)N(c2ccccc2)C(C)C)c1=O | 9 |
| Cc1nn(C)c(C)c1-n1c(=O)on(C(=O)N(c2ccc(F)cc2F)C(C)C)c1=O | 3 |
| CC(C)N(C(=O)n1oc(=O)n(C[Si](C)(C)C)c1=O)c1ccc(Cl)cc1 | 9 |
| CC(C)N(C(=O)n1oc(=O)n(Cc2ccccc2)c1=O)c1ccc(Cl)cc1 | 0 |
| CCOC(=O)C=C(Cn1c(=O)on(C(=O)N(c2ccc(Cl)cc2)C(C)C)c1=O)OCC | 3 |
| C=CCn1c(=O)on(C(=O)N(c2ccc(F)cc2F)C2CC2)c1=O | 0 |

* * *

Wheat plant response rating by entry:
# System: wheat
# ASSAY_SUMMARY: Test B pre/postemergence wheat
# Type: in vivo, Triticum aestivum
# TEST_CONTEXT: Postemergence, Rate 125 g/ha; scale of 0 to 10 where 0 is no effect and 10 is complete control

| SMILES_REPRESENTATION | Wheat plant response rating |
| --- | --- |
| CC(C)N(C(=O)n1oc(=O)n(Cc2nnc(Cl)s2)c1=O)c1ccccc1 | 0 |
| CC(C)N(C(=O)n1oc(=O)n(Cc2ccccc2Cl)c1=O)C1=CCCCC1 | 0 |
| CC(C)N(C(=O)n1oc(=O)n(C(C)C)c1=O)c1ccccc1 | 3 |
| CC(C)N(C(=O)n1oc(=O)n(CC(=O)C2CCC2)c1=O)c1ccc(F)cc1F | 0 |
| C=CCn1c(=O)on(C(=O)N(c2ccc(F)cc2F)C2CC2)c1=O | 0 |
| COP(=O)(CCn1c(=O)on(C(=O)N(c2ccc(F)cc2)C(C)C)c1=O)OC | 0 |

* * *

Some molecules, each annotated with its measured Plant response rating, Giant foxtail.
# System: giant foxtail
# ASSAY_SUMMARY: Test B pre/postemergence giant foxtail
# Format: in vivo, Setaria faberii
# TEST_CONTEXT: Postemergence, Rate 125 g/ha; scale 0 to 10, 0 is no effect, 10 is complete control

| MOLECULE | Plant response rating, Giant foxtail |
| --- | --- |
| CC(C)N(C(=O)n1oc(=O)n(C2(C)CC2)c1=O)c1ccc(F)cc1F | 4 |
| CC(C)Cn1c(=O)on(C(=O)N(c2ccccc2)C(C)C)c1=O | 9 |
| CC(C)N(C(=O)n1oc(=O)n(C2(C)CC2)c1=O)c1ccc(Cl)cc1 | 4 |
| CC(C)N(C(=O)n1oc(=O)n(N2C(C)CCCC2C)c1=O)c1ccc(F)cc1F (stereo not shown) | 0 |
| CC(C)N(C(=O)n1oc(=O)n(CC2(C)COC2)c1=O)c1ccccc1 | 8 |
| CC(C)N(C(=O)n1oc(=O)n(C2CC3CCC2C3)c1=O)c1ccc(F)cc1 (stereo not shown) | 0 |
| CC1CC1n1c(=O)on(C(=O)N(c2ccccc2)C(C)C)c1=O (stereo not shown) | 8 |
